Measured IC50, listed per entry for reference.
molecular target: human PAD4 (Homo sapiens (Human), UniProt Q9UM07); experiment: In Vitro PAD4 BAEE Biochemical Assay; conditions: human PAD4, BAEE substrate; 5 nM PAD4, 2 mM calcium chloride, 3 mM BAEE; geometric mean of multiple experiments
Sequence (Q9UM07 2-663): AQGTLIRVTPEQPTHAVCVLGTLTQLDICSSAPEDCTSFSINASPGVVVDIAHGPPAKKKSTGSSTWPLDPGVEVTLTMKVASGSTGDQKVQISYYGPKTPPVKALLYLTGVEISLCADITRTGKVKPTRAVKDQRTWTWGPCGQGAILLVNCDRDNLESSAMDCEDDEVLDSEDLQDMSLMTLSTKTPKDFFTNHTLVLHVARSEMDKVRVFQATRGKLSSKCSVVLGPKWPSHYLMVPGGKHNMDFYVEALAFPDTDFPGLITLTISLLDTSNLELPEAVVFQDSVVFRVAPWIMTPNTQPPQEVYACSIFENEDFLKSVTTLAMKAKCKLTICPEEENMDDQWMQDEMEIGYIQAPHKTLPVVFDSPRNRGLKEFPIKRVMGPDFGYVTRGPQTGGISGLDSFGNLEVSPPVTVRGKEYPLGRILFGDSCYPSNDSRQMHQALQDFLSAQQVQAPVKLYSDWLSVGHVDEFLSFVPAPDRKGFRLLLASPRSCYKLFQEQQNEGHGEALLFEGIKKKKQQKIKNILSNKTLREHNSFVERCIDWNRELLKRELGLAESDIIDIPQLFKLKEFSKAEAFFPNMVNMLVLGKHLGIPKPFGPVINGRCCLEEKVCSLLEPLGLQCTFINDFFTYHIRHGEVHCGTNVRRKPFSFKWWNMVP
// units = nM; emit number, no label

Please review the following examples before continuing.
1. COc1cc(C(=O)N2[C@H]3CC[C@@H]2[C@H](N)C3)cc2nc(-c3cc4ccc([C@@H](C)NC(=O)c5cnc(C)o5)cc4n3CC3CC3)n(C)c12: 27.6
2. COc1cc(C(=O)N2C[C@H](N)CC[C@@H]2C)cc2nc(-c3cc4ccc(-c5ccc6[nH]ncc6c5C)nc4n3CC3CC3)n(C)c12: 1360

Please look at the following compound next.
# get_value(readout='IC50', item= COc1cc(C(=O)N2[C@H]3CC[C@@H]2[C@H](N)C3)cc2nc(-c3cc4ccc([C@@H](C)NC(=O)c5ccccc5)nc4n3CC3CC3)n(C)c12 )
29.2
